Each item that follows carries a reported pIC50.
tested on: HT-29; assay: Cytotoxicity against human HT29 cells; assay type: functional, cell-based
pIC50: −log10 of the molar value.

// known answers, use as guide
CO[C@H]1O[C@@H]2CCC3=C[C@@H](O)C[C@H](C)[C@@]3(C)[C@H]2[C@@H]1C; < 4.30
C[C@@H]1C(=O)O[C@H]2CCC3=CC(=O)C[C@H](C)[C@@]3(C)[C@H]21; < 4.30

// next entry
// recorded pIC50 for C=C(CC[C@@H](C)[C@H]1CC[C@H]2[C@@H]3C[C@@H](O)[C@@]4(O)C[C@@H](O)CC[C@]4(COC(C)=O)[C@H]3CC[C@]12C)C(C)C : 5.51

* * *

test system: P388; assay: Cytotoxicity against mouse P388 cells; type: functional, cell-based
assay-metric: pIC50
pIC50 is defined as minus the log10 of a concentration measured in mol/L.

CO[C@H](C(=O)[C@@H](O)[C@@H](C)O)[C@@H]1Cc2cc3cc(O[C@H]4C[C@@H](O[C@@H]5C[C@@H](O)[C@H](O)[C@@H](C)O5)[C@H](O)[C@@H](C)O4)c(C)c(O)c3c(O)c2C(=O)[C@H]1O[C@H]1C[C@@H](O[C@@H]2C[C@@H](O)[C@@H](O[C@@H]3C[C@](C)(O)[C@H](O)[C@@H](C)O3)[C@@H](C)O2)[C@H](O)[C@@H](C)O1 [PLICAMYCIN]; 7.00

Lab note: measured pIC50 of C=C(CC[C@@H](C)[C@H]1CC[C@H]2[C@@H]3C[C@@H](O)[C@@]4(O)C[C@@H](O)CC[C@]4(COC(C)=O)[C@H]3CC[C@]12C)C(C)C [ARMATINOL B] was 5.49

* * *

Listed below: IC50 values for each entry.
test system: HT-29; assay: Cytotoxicity against human HT29 cells; assay type: functional, cell-based

Illustrative cases are given below, each with its answer.
C[C@@H]1C(=O)O[C@@H]2CCC3=C[C@@H](O)C[C@H](C)[C@@]3(C)[C@@H]12 [ARMATIN B]; > 50 µM
CO[C@@H]1O[C@H]2CCC3=C[C@@H](O)C[C@H](C)[C@@]3(C)[C@H]2[C@@H]1C [ARMATIN D]; > 50 µM
C=C(CC[C@@H](C)[C@H]1CC[C@H]2[C@@H]3C[C@H]4O[C@]45C[C@@H](O)CC[C@]5(COC(C)=O)[C@H]3CC[C@]12C)C(C)C [ARMATINOL A]; 6.5 µM
C[C@H]1[C@H]2[C@@H](CCC3=C[C@@H](O)C[C@H](C)[C@]32C)O[C@@H]1O [ARMATIN A]; > 50 µM
CO[C@H](C(=O)[C@@H](O)[C@@H](C)O)[C@@H]1Cc2cc3cc(O[C@H]4C[C@@H](O[C@@H]5C[C@@H](O)[C@H](O)[C@@H](C)O5)[C@H](O)[C@@H](C)O4)c(C)c(O)c3c(O)c2C(=O)[C@H]1O[C@H]1C[C@@H](O[C@@H]2C[C@@H](O)[C@@H](O[C@@H]3C[C@](C)(O)[C@H](O)[C@@H](C)O3)[C@@H](C)O2)[C@H](O)[C@@H](C)O1 [PLICAMYCIN]; 0.3 µM

As a next step, examine the molecule that follows.
IC50 reported for this molecule CO[C@@H]1O[C@H]2CCC3=CC(=O)C[C@H](C)[C@@]3(C)[C@H]2[C@@H]1C [ARMATIN E] : > 50 µM

This collection of values is drawn from ChEMBL document CHEMBL1148216.
